All values here come from patent US20240182445A1.

- MEASURED_ON: human TREK-1 (Homo sapiens)
- Construct: expressed in transfected cells
- Sequence (O95069 1-426): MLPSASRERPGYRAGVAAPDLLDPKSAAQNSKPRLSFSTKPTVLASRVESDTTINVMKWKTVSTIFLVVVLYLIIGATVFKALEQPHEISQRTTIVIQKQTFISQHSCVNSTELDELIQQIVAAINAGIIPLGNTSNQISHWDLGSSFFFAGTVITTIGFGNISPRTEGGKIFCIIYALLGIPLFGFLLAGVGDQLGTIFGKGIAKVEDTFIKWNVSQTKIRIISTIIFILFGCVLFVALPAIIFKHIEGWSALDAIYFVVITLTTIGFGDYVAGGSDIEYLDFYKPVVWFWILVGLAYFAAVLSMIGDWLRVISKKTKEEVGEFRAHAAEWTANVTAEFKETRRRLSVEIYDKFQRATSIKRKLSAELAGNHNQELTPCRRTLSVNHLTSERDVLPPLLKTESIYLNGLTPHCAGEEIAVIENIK
- EXPERIMENT_NOTES: TREK-1 Thallium (Tl+) flux assay, Method 1
- Format: cell-based
- RECORDED_CONDITIONS: TREK-1 Thallium (Tl+) flux assay, Method 1
MEASURED_METRIC: IC50
Record the result as a number with its unit.

COMPOUND	IC50
Cc1cc(-c2cnn(-c3ccc(F)cc3)c2)cnc1NC(=O)c1c(Cl)cnn1[C@H]1CCOC1 [Compound 395]	1.42 µM
CCOc1ccc(-c2cnc(NC(=O)c3c(Cl)cnn3C3CCN(C(=O)OC(C)(C)C)CC3)c(C)c2)cc1 [Compound 431]	6.4 µM
COc1ncc(-c2cnc(NC(=O)c3c(Cl)cnn3C3CCN(C(=O)OC(C)(C)C)CC3)c(C)c2)cn1 [Compound 419]	4.19 µM
Cc1cc(OCc2ccccc2)ccc1NC(=O)c1c(Cl)cnn1C1CCN(C(=O)C(C)C)CC1 [Compound 411]	2.84 µM
Cc1ccc(-n2cc(-c3cnc(NC(=O)c4c(Cl)cnn4C4CCN(C(=O)OC(C)(C)C)CC4)c(C)c3)cn2)cc1 [Compound 409]	2.77 µM

Summary: COc1ccc(-c2cnc(NC(=O)c3c(Cl)cnn3C3CCN(C(=O)OC(C)(C)C)CC3)c(C)c2)cn1 [Compound 407] , human TREK-1 (Homo sapiens), IC50 = 2.57 µM

Summary: CC(=O)N1CCC(n2ncc(Cl)c2C(=O)Nc2ncc(-c3cc(F)c(Cl)c(F)c3)cc2C)CC1 [Compound 426] , human TREK-1 (Homo sapiens), IC50 = 5.12 µM

Summary: Cc1cc(OCc2ccccc2)ccc1NC(=O)c1c(Cl)cnn1CC1CN(C(=O)C(C)C)CCO1 (centres unmarked) [Compound 420] , human TREK-1 (Homo sapiens), IC50 = 4.38 µM

---

- MEASURED_ON: human TREK-1 (Homo sapiens)
- Construct: expressed in transfected cells
- EXPERIMENT_NOTES: TREK-1 Thallium (Tl+) flux assay, Method 1
- Format: cell-based
- RECORDED_CONDITIONS: TREK-1 Thallium (Tl+) flux assay; no *^12 (Method 2) mark on these rows
MEASURED_METRIC: pIC50
Note on pIC50: it is the negative log10 of concentration, concentration in mol/L.

Worked set:
COMPOUND	RESULT
CC(C)(C)OC(=O)N1CCC(n2ncc(Cl)c2C(=O)Nc2c(F)cc(C#Cc3ccccc3)cc2F)C1 (centres unmarked) [Compound 297]	6.27
CC(=O)N1C[C@H]2C[C@H](n3ncc(Cl)c3C(=O)Nc3ncc(C#Cc4ccccc4F)cc3C)C[C@H]2C1 [Compound 359]	6.05
Cn1ncc2cc(-n3ncc(Cl)c3C(=O)Nc3ncc(C#Cc4ccccc4)cc3F)ccc21 [Compound 270]	6.34
Cc1cc(C#Cc2cccs2)cnc1NC(=O)c1c(Cl)cnn1C[C@H]1COCCO1 [Compound 343]	6.12

We now examine a further compound.
Summary: O=C(Nc1ncc(C#Cc2ccccc2)cc1Cl)c1c(Cl)cnn1[C@@H]1CCOC1 [Compound 376] , human TREK-1 (Homo sapiens), pIC50 = 5.81

---

- MEASURED_ON: human TREK-1 (Homo sapiens)
- Construct: expressed in transfected cells
- Sequence (O95069 1-426): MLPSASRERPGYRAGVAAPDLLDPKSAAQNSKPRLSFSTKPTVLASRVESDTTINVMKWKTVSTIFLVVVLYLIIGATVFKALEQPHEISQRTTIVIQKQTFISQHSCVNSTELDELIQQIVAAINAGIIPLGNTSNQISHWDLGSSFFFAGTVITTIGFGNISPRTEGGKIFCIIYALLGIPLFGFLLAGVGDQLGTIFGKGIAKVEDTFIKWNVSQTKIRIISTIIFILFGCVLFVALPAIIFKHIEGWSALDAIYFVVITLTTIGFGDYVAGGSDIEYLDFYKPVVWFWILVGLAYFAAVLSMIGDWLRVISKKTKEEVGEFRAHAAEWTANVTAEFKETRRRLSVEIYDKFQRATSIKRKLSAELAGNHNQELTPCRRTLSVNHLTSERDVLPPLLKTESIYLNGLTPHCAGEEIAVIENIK
- EXPERIMENT_NOTES: TREK-1 Thallium (Tl+) flux assay, Method 1
- Format: cell-based
- RECORDED_CONDITIONS: TREK-1 Thallium (Tl+) flux assay, Method 1
Output: class label from IC50. Mapping: bottom: < 2 µM; middle: ≥ 2 µM and < 5 µM; top: ≥ 5 µM

Use these answered entries as a reference point.
COMPOUND	ASSIGNED_LABEL
CC(=O)N1CCC(n2ncc(Cl)c2C(=O)Nc2ncc(OCc3ccccc3)cc2C)CC1	bottom
Cc1cc(OCc2ccccc2)ccc1NC(=O)c1c(Cl)cnn1C1CCN(C(=O)C2CCC2)CC1	middle
Cc1cc(-c2cnn(-c3ccc(F)cc3)c2)cnc1NC(=O)c1c(Cl)cnn1C1CC(C#N)C1 (stereo not drawn)	bottom
COc1c(F)cc(-c2cnc(NC(=O)c3c(Cl)cnn3C3CCN(C(C)=O)CC3)c(C)c2)cc1F	top

Textbook exercise: identify the category of the compound given here, "COc1ccc(-c2cnc(NC(=O)c3c(Cl)cnn3C3CCN(C(=O)OC(C)(C)C)CC3)c(C)c2)c(C)c1" , according to its measured value.
middle

Textbook exercise: identify the category of the compound given here, "COc1ccc(-c2cnc(NC(=O)c3c(Cl)cnn3C3CCN(C(C)=O)CC3)c(C)c2)cc1Cl" , according to its measured value.
top

Textbook exercise: identify the category of the compound given here, "Cc1cc(-c2cnn(-c3ccccc3)c2)cnc1NC(=O)c1c(Cl)cnn1C1CCN(C(=O)OC(C)(C)C)CC1" , according to its measured value.
middle

Textbook exercise: identify the category of the compound given here, "Cc1cc(OCc2ccccc2)ccc1NC(=O)c1c(Cl)cnn1C1CCN(C(=O)OC(C)(C)C)CC1" , according to its measured value.
top

Textbook exercise: identify the category of the compound given here, "COc1cc(-c2cnc(NC(=O)c3c(Cl)cnn3C3CCN(C(=O)OC(C)(C)C)CC3)c(C)c2)ccn1" , according to its measured value.
top

Textbook exercise: identify the category of the compound given here, Cc1cc(OCc2ccccc2)ccc1NC(=O)c1c(Cl)cnn1CC1CN(C(=O)C2CC2C)CCO1 (stereo not drawn) , according to its measured value.
middle

Textbook exercise: identify the category of the compound given here, "Cc1cc(OCc2ccccc2)ccc1NC(=O)c1c(Cl)cnn1C1CCN(C(=O)CC(C)C)CC1" , according to its measured value.
bottom

Textbook exercise: identify the category of the compound given here, "CCCCOc1ccc(-c2cnc(NC(=O)c3c(Cl)cnn3C3CCN(C(C)=O)CC3)c(C)c2)cc1" , according to its measured value.
middle

---

- MEASURED_ON: human TREK-1 (Homo sapiens)
- Construct: expressed in transfected cells
- EXPERIMENT_NOTES: TREK-1 Thallium (Tl+) flux assay, Method 1
- Assay type: cell-based
- RECORDED_CONDITIONS: TREK-1 Thallium (Tl+) flux assay; values without footnote *12 are Method 1
Reported pIC50 by item:
Note on pIC50: it is the negative log10 of concentration, concentration in mol/L.

Worked set:
MOLECULE	pIC50
CC(=O)N1CC[C@H](n2ncc(Cl)c2C(=O)Nc2ncc(C#Cc3ccccc3)cc2F)[C@@H](F)C1	6.62
Cc1cc(C#Cc2cccs2)cnc1NC(=O)c1c(Cl)cnn1CC1CCN(C(=O)C2COCCO2)CC1 (centres unmarked)	6.72
O=C(Nc1ncc(C#Cc2ccccc2)cc1F)c1c(Cl)cnn1-c1ccc2c(c1)OCCO2	6.54
CC(=O)N1CCC(Cn2ncc(Cl)c2C(=O)Nc2ncc(C#Cc3ccccc3)cc2F)C1 (centres unmarked)	6.89
CC(=O)N1CCC(C)(Cn2ncc(Cl)c2C(=O)Nc2ncc(C#Cc3ccccc3)cc2C)CC1	6.59

We now examine a further molecule.
The molecule identified as Cc1cc(C#Cc2ccccc2)cnc1NC(=O)c1c(Cl)cnn1C1CCN(C(=O)C2CC2)C1 (centres unmarked) registered its pIC50 at 6.80
